assay system: human EGF-R (Homo sapiens, UniProt P00533)
Construct: expressed in transfected cells
Sequence (P00533 25-1210): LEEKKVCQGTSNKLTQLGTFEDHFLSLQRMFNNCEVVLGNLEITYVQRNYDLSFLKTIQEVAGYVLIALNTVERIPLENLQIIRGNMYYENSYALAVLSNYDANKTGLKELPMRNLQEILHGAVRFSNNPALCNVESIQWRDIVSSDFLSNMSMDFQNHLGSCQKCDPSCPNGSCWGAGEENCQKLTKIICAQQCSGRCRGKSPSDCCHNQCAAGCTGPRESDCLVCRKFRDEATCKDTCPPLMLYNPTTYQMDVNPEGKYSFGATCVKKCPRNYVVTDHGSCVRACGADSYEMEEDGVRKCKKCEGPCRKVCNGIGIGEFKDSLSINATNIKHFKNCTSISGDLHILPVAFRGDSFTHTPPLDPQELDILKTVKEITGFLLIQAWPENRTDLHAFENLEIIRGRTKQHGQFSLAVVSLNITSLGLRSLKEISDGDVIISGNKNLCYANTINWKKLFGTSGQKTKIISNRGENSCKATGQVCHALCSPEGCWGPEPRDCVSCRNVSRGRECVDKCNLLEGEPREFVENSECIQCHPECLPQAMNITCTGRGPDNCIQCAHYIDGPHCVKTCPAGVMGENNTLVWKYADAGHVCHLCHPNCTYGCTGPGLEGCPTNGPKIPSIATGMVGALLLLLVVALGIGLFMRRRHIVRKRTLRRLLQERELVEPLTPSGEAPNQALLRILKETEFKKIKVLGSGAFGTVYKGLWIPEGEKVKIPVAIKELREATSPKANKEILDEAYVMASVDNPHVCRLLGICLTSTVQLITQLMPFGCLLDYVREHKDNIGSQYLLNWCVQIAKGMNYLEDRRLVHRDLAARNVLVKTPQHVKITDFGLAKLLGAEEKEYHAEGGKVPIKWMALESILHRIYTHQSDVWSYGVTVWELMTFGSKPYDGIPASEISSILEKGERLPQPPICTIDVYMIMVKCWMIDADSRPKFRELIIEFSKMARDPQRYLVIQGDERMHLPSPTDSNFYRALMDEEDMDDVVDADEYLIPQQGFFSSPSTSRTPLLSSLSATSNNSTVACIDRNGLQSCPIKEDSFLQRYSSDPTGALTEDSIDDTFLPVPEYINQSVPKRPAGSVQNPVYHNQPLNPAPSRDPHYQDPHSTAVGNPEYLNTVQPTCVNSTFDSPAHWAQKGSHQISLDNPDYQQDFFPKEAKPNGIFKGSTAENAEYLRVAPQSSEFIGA
assay remarks: Inhibition of the EGFR-dependent proliferation of a murine haematopoietic cell line expressing human EGF-R, stimulated with EGF
Assay type: cell-based
condition summary: 20 ng/ml human EGF, 48 hours at 37° C., Cell Titer 96 AQueous assay
Experimental: A murine haematopoietic cell line is genetically modified so as to express functional human EGF-R. The proliferation of this cell line can therefore be stimulated by EGF. The test is carried out as follows: The cells are cultivated in RPMI/1640 medium. […] In order to determine the inhibitory activity of the compounds according to the invention the relative cell number is measured in O.D. Units using the Cell Titer 96™ AQueous Non-Radioactive Cell Proliferation Assay (Promega). […]
Catalogue of pIC50 readings, one per entry.
Kindly note that pIC50 refers to -log10 of the concentration in mol/L and answer with the value alone.

COc1cc2ncnc(Nc3cccc(Cl)c3F)c2cc1O[C@H]1CC[C@H]([C@H]2NCCNC2=O)CC1 [1(5)]    8.80
COc1cc2ncnc(Nc3cccc(Cl)c3F)c2cc1O[C@H]1CC[C@@H]([C@H]2NCCNC2=O)CC1 [1(4)]    7.90
COc1cc2ncnc(Nc3cccc(Cl)c3F)c2cc1O[C@H]1CC[C@H]([C@@H]2NCCNC2=O)CC1 [1(1b)]    8.85

Next item in the queue.
Looking up COc1cc2ncnc(Nc3cccc(Cl)c3F)c2cc1OC1CCC([C@H]2C(=O)N(C)CCN2C)CC1 (mixture of isomers) [1(3)] , I found its pIC50 recorded as 9.00

---

assay system: human EGF-R (Homo sapiens)
assay remarks: Inhibition of the EGFR-dependent proliferation of a murine haematopoietic cell line expressing human EGF-R, stimulated with EGF
condition summary: 20 ng/ml human EGF, 48 hours at 37° C., Cell Titer 96 AQueous assay
outcome measure: IC50 (nM)
Numbers only here, please. The scale is nM.

Study these solved cases before continuing.
COc1cc2ncnc(Nc3cccc(Cl)c3F)c2cc1O[C@H]1CC[C@@H]([C@@H]2NCCNC2=O)CC1    10
COc1cc2ncnc(Nc3cccc(Cl)c3F)c2cc1OC1CCC([C@H]2C(=O)NCCN2C)CC1 (mixture of isomers)    1

Next item in the queue.
Looking up `COc1cc2ncnc(Nc3cccc(Cl)c3F)c2cc1O[C@H]1CC[C@H]([C@@H]2NCCN(C)C2=O)CC1` , I found its IC50 recorded as 1

Attribution: patent US8648191B2
